Origin of values: ChEMBL document CHEMBL3085630

Molecular target: Farnesyl pyrophosphate synthase (Homo sapiens)
Sequence (whole entry): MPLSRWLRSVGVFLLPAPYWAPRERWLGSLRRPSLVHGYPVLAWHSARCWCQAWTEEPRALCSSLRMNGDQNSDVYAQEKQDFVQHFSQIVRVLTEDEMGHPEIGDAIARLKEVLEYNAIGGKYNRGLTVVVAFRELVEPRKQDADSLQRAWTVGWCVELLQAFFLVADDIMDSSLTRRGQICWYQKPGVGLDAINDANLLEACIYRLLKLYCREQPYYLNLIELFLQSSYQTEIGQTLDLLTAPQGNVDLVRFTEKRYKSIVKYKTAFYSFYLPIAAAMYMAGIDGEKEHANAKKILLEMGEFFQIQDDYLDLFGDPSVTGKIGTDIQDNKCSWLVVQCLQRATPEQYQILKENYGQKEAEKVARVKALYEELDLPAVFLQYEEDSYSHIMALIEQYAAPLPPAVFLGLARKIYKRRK
Assay: Inhibition of human recombinant FPPS using GPP/[3H]IPP as substrate at 100 nM incubated for 10 mins prior to substrate addition measured after 8 mins by scintillation counting analysis
recordedMetric: inhibition (%)

(P) O=P(O)(O)C(Nc1ncnc2sc(-c3cccc(C(F)(F)F)c3)cc12)P(=O)(O)O
(Q) O=P(O)(O)C(Nc1ncnc2sc(-c3ccc(C(F)(F)F)cc3)cc12)P(=O)(O)O
*Q* In the pair P and Q , the larger recorded inhibition belongs to which? State your choice using its label.
*A* Q

###

Target: UniProtKB P14324
Assay: Inhibition of human recombinant FPPS using GPP/[3H]IPP as substrate incubated for 10 mins prior to substrate addition by scintillation counting analysis
pIC50: −log10 of the molar value.
recordedMetric: pIC50

O=P(O)(O)C(Nc1ncnc2sc(-c3ccc(C4CC4)cc3)cc12)P(=O)(O)O
6.94

(A) COc1ccc(-c2cc3c(NC(P(=O)(O)O)P(=O)(O)O)ncnc3s2)cc1
(B) O=P(O)(O)C(Nc1ncnc2sc(-c3ccc(C4CC4(F)F)cc3)cc12)P(=O)(O)O (stereo not drawn)
*Q* # query: argmin of pIC50 over A and B State your choice using its label.
*A* A
(A: 6.36, B: 6.85)

###

Target: UniProtKB P14324
Assay: Inhibition of human recombinant FPPS using GPP/[3H]IPP as substrate at 100 nM incubated for 10 mins prior to substrate addition measured after 8 mins by scintillation counting analysis
recordedMetric: inhibition

As a guide, the following entries are already answered.
O=P(O)(O)C(Nc1ncnc2sc(-c3cccc4[nH]ncc34)cc12)P(=O)(O)O
< 20%
Cc1noc(C)c1-c1cc2c(NC(P(=O)(O)O)P(=O)(O)O)ncnc2s1
< 20%

*Q* inhibition for O=P(O)(O)C(Nc1ncnc2sc(-c3ccc4[nH]ncc4c3)cc12)P(=O)(O)O ?
*A* < 20%
